Assay: Mammalian cytotoxicity, MTT, HepG2
Assay type: cell-based, human
Details: human, HepG2 hepatocellular carcinoma cells
Where a SMILES comes first, the peptide text is derived from it. [ ]: non-standard residue; d: D form. Gly(Nα-4-Cl-benzyl) = O=C(O)CNCc1ccc(Cl)cc1; N(tridecyl)Gly = CCCCCCCCCCCCCNCC(=O)O; Gly(N-2-aminoethyl) = NCCNCC(=O)O; Gly(N-cHex) = O=C(O)CNC1CCCCC1; Nlys = NCCCCNCC(=O)O; Sar = CNCC(=O)O
readout_type: CC50 at 72 h

* CCCCCCCCCCCCCNCC(=O)N(CC(=O)N(CCCCN)CC(=O)N(CCN)CC(=O)N(CC(N)=O)Cc1ccc(Cl)cc1)Cc1ccc(Cl)cc1 [Compound 18] (H-[N(tridecyl)Gly][Gly(Nα-4-Cl-benzyl)][Nlys][Gly(N-2-aminoethyl)][Gly(Nα-4-Cl-benzyl)]-NH2) | 71.8 µg/mL
* CCCCCCCCCCCCCNCC(=O)N(CC(=O)N(C)CC(=O)N(CCN)CC(=O)N(CC(N)=O)C1CCCCC1)C1CCCCC1 | 83 µg/mL
* CNCC(=O)N(CC(=O)N(CCCCN)CC(=O)N(CCN)CC(=O)N(CC(N)=O)C1CCCCC1)C1CCCCC1 [Position 1] (H-[Sar][Gly(N-cHex)][Nlys][Gly(N-2-aminoethyl)][Gly(N-cHex)]-NH2) | > 200 µg/mL
